# credit: the kinase profiling compilation of Christmann-Franck et al. (2016)

Tested On: UniProt:P54760
Sequence (P54760 whole entry, looked up): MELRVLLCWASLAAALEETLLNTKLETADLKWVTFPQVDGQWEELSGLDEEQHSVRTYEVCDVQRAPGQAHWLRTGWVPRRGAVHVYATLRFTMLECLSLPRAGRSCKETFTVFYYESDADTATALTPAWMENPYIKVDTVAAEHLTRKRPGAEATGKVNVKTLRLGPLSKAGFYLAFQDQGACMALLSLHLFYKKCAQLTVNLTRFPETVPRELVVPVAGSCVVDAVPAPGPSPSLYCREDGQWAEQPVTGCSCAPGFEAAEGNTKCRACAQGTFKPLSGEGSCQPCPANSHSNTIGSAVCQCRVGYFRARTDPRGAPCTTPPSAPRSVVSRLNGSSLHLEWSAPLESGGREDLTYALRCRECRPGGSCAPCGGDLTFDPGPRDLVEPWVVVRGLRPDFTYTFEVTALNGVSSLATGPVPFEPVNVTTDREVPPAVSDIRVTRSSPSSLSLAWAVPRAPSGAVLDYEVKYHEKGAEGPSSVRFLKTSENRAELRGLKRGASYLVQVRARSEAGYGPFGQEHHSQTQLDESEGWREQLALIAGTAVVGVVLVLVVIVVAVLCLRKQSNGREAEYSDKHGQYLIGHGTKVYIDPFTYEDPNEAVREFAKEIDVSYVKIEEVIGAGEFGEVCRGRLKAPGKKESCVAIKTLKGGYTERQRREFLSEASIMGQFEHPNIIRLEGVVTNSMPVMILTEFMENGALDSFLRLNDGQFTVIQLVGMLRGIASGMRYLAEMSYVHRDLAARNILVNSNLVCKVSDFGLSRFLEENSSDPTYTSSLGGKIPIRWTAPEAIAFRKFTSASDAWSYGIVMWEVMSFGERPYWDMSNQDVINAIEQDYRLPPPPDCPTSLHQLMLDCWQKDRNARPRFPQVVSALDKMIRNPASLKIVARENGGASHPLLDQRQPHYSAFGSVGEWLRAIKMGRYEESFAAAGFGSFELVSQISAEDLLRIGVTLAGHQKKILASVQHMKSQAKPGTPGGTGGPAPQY
Assay Remarks: KINOMEscan competition binding
Settings: compound 10.0 µM
Value Type: kinase still bound, per cent of control (%)
One number for each entry, in %.

// known answers, use as guide
CC1=C(C(=O)Nc2cc3cn[nH]c3cc2F)C(c2ccc(C(F)(F)F)cc2)CC(=O)N1 (stereo not drawn)
88
COc1cc2ncnc(Nc3cccc(Cl)c3)c2cc1OC
38
O=c1[nH]c2ccccc2n1C1CCN(Cc2ccc(-c3nc4cc5[nH]cnc5cc4nc3-c3ccccc3)cc2)CC1
100
N#Cc1cc(-c2ccnc(Nc3ccc(-n4cnc(-c5cccnc5)n4)cc3)n2)cc(N2CCOCC2)c1
70
COc1cc(N2CCC(C(N)=O)CC2)ccc1Nc1nc(N)c(Cl)c(Nc2ccccc2S(=O)(=O)C(C)C)n1
100
CCN1CCN(Cc2ccc(NC(=O)c3ccc(C)c(/C=C/c4cnc5[nH]ccc5c4OC)c3)cc2C(F)(F)F)CC1
2.7
CC(=O)c1c(C)c2cnc(Nc3ccc(N4CCNCC4)cn3)nc2n(C2CCCC2)c1=O
100
CCN(CCO)CCCOc1ccc2c(Nc3cc(CC(=O)Nc4cccc(F)c4)[nH]n3)ncnc2c1
100
COc1cc2c(Nc3ccc(NC(=O)c4ccccc4)cc3)ncnc2cc1OCCCN1CCOCC1
100
N#C/C(=C1/Nc2ccccc2S1)c1ccnc(NCCc2cccnc2)n1
100

Batch of 3 compounds: report kinase still bound, per cent of control for each.
1. Cc1cn(-c2cc(C(=O)Nc3ccc(C)c(NC(=O)c4ccno4)c3)cc(C(F)(F)F)c2)cn1
2. CCOc1cc(N2CCC(O)CC2)ccc1Nc1ncc2c(n1)N(C)c1ccccc1C(=O)N2C
3. COc1cc(C)c(Sc2cnc(NC(=O)c3ccc(CNC(C)C(C)C)cc3)s2)cc1C(=O)N1CCN(C(C)=O)CC1 (stereo not drawn)

1: 15; 2: 100; 3: 100

Batch of 2 compounds: report kinase still bound, per cent of control for each.
1. CNC(=O)Nc1ccc(-c2nc(N3CC4CCC(C3)O4)c3cnn(C4CCC5(CC4)OCCO5)c3n2)cc1
2. CCc1nc(-c2cccc(C)c2)c(-c2ccnc(NC(=O)c3ccccc3)c2)s1

1: 100; 2: 53

Batch of 3 compounds: report kinase still bound, per cent of control for each.
1. CCCS(=O)(=O)Nc1ccc(F)c(C(=O)c2c[nH]c3ncc(Cl)cc23)c1F
2. C=CC(=O)Nc1ccc(C(=O)c2sc(Nc3ccc(N4CCN(C)CC4)cc3OC)nc2N)cc1
3. COc1ccc(N(C(=O)Oc2cc(C(=O)Nc3cccc(C(F)(F)F)c3)ccc2C)c2ccnc(Nc3ccc(N4CCN(C)CC4)cc3)n2)c(OC)c1

1: 100; 2: 100; 3: 0.3
